EXPERIMENTAL PROTOCOL: Photobleaching under continuous-wave irradiation at 532 nm
Type: physicochemical
PARTICULARS: continuous-wave irradiation 532 nm, 0.53 fluence, dichloromethane
Hi there, I'd appreciate the recorded raw rate, k (photobleaching) for every entry that follows.
Give bare numbers, in s^−1 × 10^−3.

Worked cases, answers included:
| COMPOUND STRING | REPORTED RESULT |
| --- | --- |
| CN(C)c1ccc2c(c1)OC(c1ccccc1)=C/C2=C\C=C\c1cc(-c2ccccc2)[o+]c2cc(N(C)C)ccc12.[O-][Cl+3]([O-])([O-])[O-] | 1.00 |
| CN(C)c1ccc2c(c1)OC(c1ccccc1)=C/C2=C\c1cc(-c2ccccc2)[o+]c2cc(N(C)C)ccc12.O=C([O-])C(F)(F)F | 0.43 |
| CN(C)c1ccc2c(c1)OC(c1ccccc1)=C\C2=C/C=C/C=C/c1cc(-c2ccccc2)[o+]c2cc(N(C)C)ccc12.[O-][Cl+3]([O-])([O-])[O-] | 2.6 |

# ---- query compound ----
Query string: Query raw rate, k (photobleaching) for CN(C)c1ccc2c(c1)OC(c1ccccc1)=C/C2=C\C=C1/CCCC(/C=C/c2cc(-c3ccccc3)[o+]c3cc(N(C)C)ccc23)=C1Cl.[O-][Cl+3]([O-])([O-])[O-]
Result string: 28.

###

Hi there, I'd appreciate the recorded absorption (DCM) λmax for every entry that follows.
EXPERIMENTAL PROTOCOL: Absorbance spectra of the dyes in DCM (UV-Visible/NIR spectrophotometer)
Format: physicochemical
PARTICULARS: dichloromethane; in example paragraphs the longest-wavelength absorbance peak
Answers are plain numbers, in nm.

Worked cases, answers included:
| MOLECULE | READING UNIT | REPORTED RESULT |
| --- | --- | --- |
| ClC1=C(/C=C/c2cc(-c3ccccc3)[o+]c3c2ccc2ccccc23)CCC/C1=C\C=C1/C=C(c2ccccc2)Oc2c1ccc1ccccc21.F[B-](F)(F)F | nm | 998 |
| ClC1=C(/C=C/c2cc(-c3ccccc3)[o+]c3cc(N4CCC4)ccc23)CCC/C1=C\C=C1/C=C(c2ccccc2)Oc2cc(N3CCC3)ccc21.F[B-](F)(F)F | nm | 1029 |
| CN(C)c1ccc2c(c1)OC(c1ccccc1)=C/C2=C\C=C1/CCCC(/C=C/c2cc(-c3ccccc3)[o+]c3cc(N(C)C)ccc23)=C1Cl.F[B-](F)(F)F | nm | 1026 |
| CN(C)c1ccc2c(c1)OC(c1ccccc1)=C/C2=C\C=C1/CCCC(/C=C/c2cc(-c3ccccc3)[o+]c3cc(N(C)C)ccc23)=C1Cl.[O-][Cl+3]([O-])([O-])[O-] [Dye 3] | nm | 1026 |

# ---- query molecule ----
Query string: Query absorption (DCM) λmax for ClC1=C(/C=C/c2cc(-c3ccccc3)[o+]c3ccc4ccccc4c23)CCC/C1=C\C=C1/C=C(c2ccccc2)Oc2ccc3ccccc3c21.F[B-](F)(F)F
Result string: 1014
